- System: NCI-H322M
- experiment-description: relative viability (nuclei count vs DMSO), 5 days (fraction); higher = more cells survive
- experimental-setup: first compound 0.02 µM

{"compound": "CC(=O)O[C@@]12CO[C@@H]1C[C@H](O)[C@@]1(C)C(=O)[C@H](O)C3=C(C)[C@@H](OC(=O)[C@H](O)[C@@H](NC(=O)OC(C)(C)C)c4ccccc4)C[C@@](O)([C@@H](OC(=O)c4ccccc4)[C@H]21)C3(C)C [Docetaxel] + CCNC(=O)c1noc(-c2cc(C(C)C)c(O)cc2O)c1-c1ccc(CN2CCOCC2)cc1 [Luminespib] (partner 0.01 µM)", "relative viability": 0.347}
{"compound": "CC(=O)O[C@@]12CO[C@@H]1C[C@H](O)[C@@]1(C)C(=O)[C@H](O)C3=C(C)[C@@H](OC(=O)[C@H](O)[C@@H](NC(=O)OC(C)(C)C)c4ccccc4)C[C@@](O)([C@@H](OC(=O)c4ccccc4)[C@H]21)C3(C)C [Docetaxel] + CS(=O)(=O)CCNCc1ccc(-c2ccc3ncnc(Nc4ccc(OCc5cccc(F)c5)c(Cl)c4)c3c2)o1 [Lapatinib] (partner 2 µM)", "relative viability": 0.293}

Data provenance is the supplement of paper PMC10307832.
